Values were extracted from ChEMBL document CHEMBL4152303.

- assayed target: N-arachidonyl glycine receptor (Homo sapiens)
- test details: Agonist activity at recombinant full length human GPR18 expressed in CHO cells assessed as forskolin-stimulated cAMP accumulation after 10 mins by enzyme immunoassay
- Assay type: functional, cell-based
readout name: EC50 (nM)
Give just the number in nM; leave the unit off.

Ask: Would you kindly share the measured EC50 for `CCCCC/C=C\C/C=C\C/C=C\C/C=C\CCCC(=O)NCC(=O)O` ?
Reply: 20

###

A collection of molecules and their measured pIC50
- assayed target: N-arachidonyl glycine receptor (Homo sapiens, UniProt Q14330)
- test details: Antagonist activity at recombinant human GPR18 expressed in CHO cells assessed as inhibition of delta9-THC-induced beta-arrestin recruitment preincubated for 60 mins followed by delta9-THC addition for 90 mins measured for 1 sec by luminescence assay
// pIC50 here means minus log10 of the molar concentration (mol/L)

The cases that follow already have their pIC50 on record.
• Cc1ccc(OCCCCCCOc2cccc(/C=C3\N=C4SCCCN4C3=O)c2)cc1 = 6.62
• O=C1/C(=C/c2cccc(OCCCCOc3ccc(Cl)cc3)c2)N=C2SCCCN12 = 5.62
• O=C1/C(=C/c2cccc(OCCCc3ccccc3)c2)N=C2SCCCN12 = 5.83

Pending molecule:
Ask: Would you kindly share the measured pIC50 for `O=C1NC(=S)N/C1=C\c1cccc(OCc2ccc(Cl)cc2)c1` ?
Reply: 4.48

###

- assayed target: N-arachidonyl glycine receptor (Homo sapiens, UniProt Q14330)
- Sequence (Q14330 whole entry): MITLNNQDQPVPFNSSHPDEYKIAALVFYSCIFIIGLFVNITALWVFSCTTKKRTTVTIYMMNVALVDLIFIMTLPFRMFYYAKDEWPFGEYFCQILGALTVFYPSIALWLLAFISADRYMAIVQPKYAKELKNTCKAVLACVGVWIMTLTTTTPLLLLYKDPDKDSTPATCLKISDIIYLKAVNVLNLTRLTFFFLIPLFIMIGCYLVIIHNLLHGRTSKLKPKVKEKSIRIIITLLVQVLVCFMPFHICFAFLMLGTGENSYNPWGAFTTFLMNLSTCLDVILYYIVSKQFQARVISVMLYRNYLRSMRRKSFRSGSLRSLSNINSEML
- test details: Agonist activity at recombinant human GPR18 expressed in HEK293 cells assessed as induction of p44/42 MAPK phosphorylation after 5 mins by Western blot analysis
- Format: functional, cell-based
readout name: EC50 (nM)
Give just the number in nM; leave the unit off.

Ask: For the record `CCCCC/C=C\C/C=C\C/C=C\C/C=C\CCCC(=O)NCC(=O)O` , what value of EC50 is listed for N-arachidonyl glycine receptor (Homo sapiens, UniProt Q14330)?
Reply: 44

###

- assayed target: Cannabinoid receptor 1 (Homo sapiens)
- Sequence (P21554 whole entry): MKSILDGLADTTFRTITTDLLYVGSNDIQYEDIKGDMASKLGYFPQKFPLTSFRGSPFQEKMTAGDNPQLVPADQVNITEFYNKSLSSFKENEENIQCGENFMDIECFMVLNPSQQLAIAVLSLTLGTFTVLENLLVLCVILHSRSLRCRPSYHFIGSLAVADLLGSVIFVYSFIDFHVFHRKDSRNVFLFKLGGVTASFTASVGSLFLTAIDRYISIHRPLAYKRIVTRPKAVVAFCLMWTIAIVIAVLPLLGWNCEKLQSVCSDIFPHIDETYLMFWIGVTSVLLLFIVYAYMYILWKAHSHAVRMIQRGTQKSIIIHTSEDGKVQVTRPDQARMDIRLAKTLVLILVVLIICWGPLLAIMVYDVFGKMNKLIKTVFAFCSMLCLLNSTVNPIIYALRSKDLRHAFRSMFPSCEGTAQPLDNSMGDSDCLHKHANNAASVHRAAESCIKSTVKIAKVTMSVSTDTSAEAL
- test details: Displacement of [3H]CP55940 from recombinant human CB1 receptor expressed in CHO cell membranes after 2 hrs by liquid scintillation counting method
- Design: concentration or dose not given beside the values
- condition details: concentration not given here
Kindly return met if reported inhibition is no lower than 20%; return not met if it is lower.

The examples below pair each entry with its known result.
- O=C1/C(=C/c2cccc(OCCCc3ccccc3)c2)N=C2SCCCN12: not met
- O=C1NC(SCc2ccc(F)cc2)=N/C1=C\c1cccc(OCc2ccc(Cl)cc2)c1: met

Ask: Evaluate `CC(C)c1ccc(OCCCCCCOc2cccc(/C=C3\N=C4SCCCN4C3=O)c2)cc1` : inhibition at minimum 20%?
Reply: met

Ask: Also `O=C1NC(=S)S/C1=C\c1cccc(OCc2ccc(Cl)cc2)c1` ?
Reply: met

Ask: Also `Cc1ccc(CSC2=N/C(=C\c3cccc(OCc4ccc(Cl)cc4)c3)C(=O)N2)cc1` ?
Reply: met

Ask: Also `Cc1ccc(OCCCCCCOc2cccc(/C=C3\N=C4SCCCN4C3=O)c2)cc1` ?
Reply: not met

Ask: Also `O=C1NC(SCCc2ccccc2)=N/C1=C\c1cccc(OCc2ccc(Cl)cc2)c1` ?
Reply: not met

Ask: Also `O=C1/C(=C/c2cccc(OCCOc3ccc(Cl)cc3)c2)N=C2SCCCN12` ?
Reply: met

Ask: Also `CCc1ccc(OCCCCCCOc2cccc(/C=C3\N=C4SCCCN4C3=O)c2)cc1` ?
Reply: not met

Ask: Also `O=C1/C(=C/c2cccc(OCCCOc3ccc(Cl)cc3)c2)N=C2SCCCN12` ?
Reply: not met
